assayMethodText: soluble fraction after stress (log2 fold change); higher = more stays soluble; pooled small domains, quantitative proteomics;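 note: 20 min heating vs room temperature control held 20 min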
conditionLabel: stress: 75 degC
Please go through the items and note down their soluble fraction (log2).
One number for each entry.

A selection of reference data follows.
HMPAVTEQTKTNLRRAFWQLYEQKPIQKITVKQITDLAGYNRGTFYLYFKDVYDLLDDIENK; -1.09
HMKLTPKQQQIYDFISSFADEHGYPPSVREIAQAVNLKSPATVHFHLKGLREAGYISQAEGKTRAITI; -0.158
HMDRSQRDQEQAQLIRLVQQAFDDSGQRYGAEKIRITLAEGGIRVSTKRIAAIMQELDLRSI; -2.41
HMSSDEDELESIIKRVFADNPIELERLQNGEDKLIKFFMGLVMRQTKGKYPPKIIIDLLNKS; -0.599

Hello, I would appreciate it if you could give soluble fraction (log2) for each entry below.
1. HMSAMKYTSEVFQRLSRGQFISSNSIDAETRAIYSDIEENQQEYEDYFSKIDFLLSSGDGFYYFSRK
2. HMLEPEVLDLIGQVKSVHHFSVTQSHQLEKLVRHAHTLGFEIAELKSLLASSPNAKSLLSSLDQKLEPLRM
3. HMPTSLPGIDIDEKNIVSSTGALSFKKVPKKLAIIGGGYIGLEMGSVWSRLGSSVTVIEYLNFITPG
4. HMIKKAILPVAGLGTRFLPASKSIPKEMVTVVDRPAIEYVVREAVEAGIEQIILVTHSSKASIENYFDR

Result string:
1. -2.38
2. -1.86
3. 0.365
4. -0.192

* * *

assayMethodText: soluble fraction after stress (log2 fold change); higher = more stays soluble; pooled small domains, quantitative proteomics
conditionLabel: stress: 75 degC
quantity: soluble fraction (log2)

Hello, I would appreciate it if you could give soluble fraction (log2) for each entry below.
1. HMDLQHQLTPRLKRLRLSGILETLEVRNQQAIAEKWSYVEFLTRLAEDEVERRDHKQLTLRLR
2. HMKNEQIFIVRPDAEGTRLDQWLAAQMASSEEAPSRMQIQRWIKAGLVEGQGTLNPARRIEAGESYTVKPG
3. HMSDPVDDLLLRISQQAGVARGQLVAELNMLVQDRFGGNLRHEAAAVLMAKRYGIEFRDLLPALREHLVKN

Result string:
1. -0.529
2. 0.0684
3. -0.804

Hello, I would appreciate it if you could give soluble fraction (log2) for each entry below.
1. HMQRQGTVATQQTPLNIRSQPSLSAQVIGQAPKGATVAILGESGDWYQIRYQNITGYSSKQYI
2. HMAPQVKIPNLVDVSQRQAEAILNSYGLKVGHLIYKPDLAKDAVLGFMFNGRSLKAGDELAKGSSIDLILG
3. HMKEGGREEMSEIVERYGDERALMANITSVQNLMNNMKWTLDQALDALGIKGKERTLITQQLQ
4. HMVEMSNMELVREQYFQNLIYNVGDWVKDSKTEITGEVVKRGTNYLTIVQEDFTLHKVWLEDAESME
5. HMNIVKGDTTANVRVVQQRLYNLGYYTYKVDGIWGTRTKTAVKKFQKDKGLVADGIVGAKTEKALGITLT
6. HMPHILEITSSKILDELQDEKKMVYFHFEKQSNQYVYRLIFNSKNELMEFKKSLEKNSSILDVRADM

Result string:
0.0804
-0.277
-0.0628
-0.511
-2.35
-1.81

Hello, I would appreciate it if you could give soluble fraction (log2) for each entry below.
1. HMDVQNLTKKNQEFINIVTHQLLQSGKSDEDIQTILAKTLPEIIEKQKQGIPARSFLGAPTAWAAQFI
2. HMLTRQRKQLLEYLSKHTDEQMTARQIADALTAESISISAVYRNLSALEEEGILKRSIRENTREVYYQYIA
3. HMDKENVLQLQKDLLRLSVNALEKRYYQFSDILLLKYILPLVPKEISIDDQSRLRSLLSGIN
4. HMEEYTVEFVKHKVKRKQTLYTISKLYNVSIDDIIKYNSQIEGFNLSRRMELNIPVKKTLIVKNE
5. HMAIGSRLKVTTDATNLNIRSTPSTEGDIVGKAAHHEIVTLVEKTDDSWWKIKTNDGEEGYAYAQYLSPV
6. HMSLDLERAVALLSLPRPVGNHPEDGELVEAGIGRYGPYVKHGSKYANLPDADEVFTIGMNRAVEVLAAK

Result string:
[-0.0596, -1.57, -0.538, -2.55, -0.031, -0.109]

Hello, I would appreciate it if you could give soluble fraction (log2) for each entry below.
1. HMAEWLFDARKIPDEVMNYLRRIAVQAIEEKHYSPELVADLLGISRSSIYDWLNWYRNGGEEDLDTRKA
2. HMNLLSPREKQSLTLYASGLTLREVASELKLSPNSVGKFISRGKFKLNKSGAIVNSKTSIYLELKKRNLI

Result string:
[-1.53, -0.147]
